Recorded values, source patent US20120065210A1.

biological target: interaction between p53 and MDM2 proteins (recombinant GST-tagged MDM2, p53 peptide) (Homo sapiens); assay: HTRF assay of inhibition of the p53-MDM2 interaction (GST-MDM2 / biotinylated p53 peptide); format: binding; conditions: bsa: 0.02%
Sequence (Q00987 whole entry): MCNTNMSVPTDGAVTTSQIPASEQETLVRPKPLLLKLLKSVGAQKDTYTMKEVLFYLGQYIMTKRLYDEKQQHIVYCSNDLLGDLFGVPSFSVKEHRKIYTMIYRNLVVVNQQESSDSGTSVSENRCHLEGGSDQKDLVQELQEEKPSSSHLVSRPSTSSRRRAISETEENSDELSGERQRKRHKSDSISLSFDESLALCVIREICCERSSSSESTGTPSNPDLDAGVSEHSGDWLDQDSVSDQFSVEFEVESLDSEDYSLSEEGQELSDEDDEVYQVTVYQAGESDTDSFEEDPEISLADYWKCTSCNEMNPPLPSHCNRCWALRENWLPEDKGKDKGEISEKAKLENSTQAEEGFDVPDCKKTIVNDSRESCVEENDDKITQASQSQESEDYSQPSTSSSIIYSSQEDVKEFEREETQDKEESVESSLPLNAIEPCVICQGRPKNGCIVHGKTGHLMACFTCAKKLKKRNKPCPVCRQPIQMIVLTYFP
Sorting guide: entries reporting IC50 beneath 9 nM go in the yes (1) pile, the rest go in the no (0) pile.

COc1cc(N2CN3[C@@H](CC(C)(C)C)[C@](C#N)(c4ccc(Cl)cc4F)[C@@H](c4cccc(Cl)c4F)[C@@H]3C2=O)ccc1C(=O)O = yes (1)
CC(C)(C)C[C@@H]1N2CN(c3ccc(C(=O)O)cc3O)C(=O)[C@H]2[C@H](c2cccc(Cl)c2F)[C@@]1(C#N)c1ccc(Cl)cc1F = no (0)
CC(C)(C)C[C@@H]1N2[C@H](CC3CCCCC3)N(c3ccc(C(=O)O)cc3)C(=O)[C@H]2[C@H](c2cccc(Cl)c2F)[C@@]1(C#N)c1ccc(Cl)cc1F (racemic) = no (0)
CC(C)(C)C[C@@H]1N2CN(CC(=O)O)C(=O)[C@H]2[C@H](c2cccc(Cl)c2F)[C@@]1(C#N)c1ccc(Cl)cc1F = no (0)
CC(C)(C)C[C@@H]1N2CN(c3ccc(C(=O)O)cc3)C(=O)[C@H]2[C@H](c2cccc(Cl)c2F)[C@@]1(C#N)c1ccc(Cl)cc1F = yes (1)
CC(C)(C)C[C@@H]1N2CN(c3ccc(C(=O)O)c(C(F)(F)F)c3)C(=O)[C@H]2[C@H](c2cccc(Cl)c2F)[C@@]1(C#N)c1ccc(Cl)cc1F = no (0)

Could you now consider this next molecule?
Exercise: Hi there! Is IC50 for COc1cc(C(=O)O)ccc1N1CN2[C@@H](CC(C)(C)C)[C@](C#N)(c3ccc(Cl)cc3F)[C@@H](c3cccc(Cl)c3F)[C@@H]2C1=O below 9 nM, do you know?
Key: no (0)
